The measurements presented in this section are drawn from the supplement of paper PMC6555819.

# PBM binding z-score values compiled below
- Tested on: PPARg:RXRa 30nM:10nM, anti-RXR (NR concentration 30 nM, RXRa partner concentration 10 nM)
- assay name: PBM binding z-score (relative to random genomic background probes); higher = stronger binding; sequences stand for … in GC…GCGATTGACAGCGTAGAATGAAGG
Reply briefly: the number, and no unit.

- biopolymer sequence: "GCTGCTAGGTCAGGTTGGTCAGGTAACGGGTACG"
  PBM binding z-score: -0.553
- biopolymer sequence: "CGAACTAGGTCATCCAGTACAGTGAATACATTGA"
  PBM binding z-score: 4.02
- biopolymer sequence: "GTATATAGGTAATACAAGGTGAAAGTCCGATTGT"
  PBM binding z-score: 1.39
- biopolymer sequence: "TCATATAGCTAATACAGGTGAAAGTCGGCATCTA"
  PBM binding z-score: 3.13
- biopolymer sequence: "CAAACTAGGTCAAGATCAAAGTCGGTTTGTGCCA"
  PBM binding z-score: 4.29

Turning to the following sequence.
# input Please report the recorded PBM binding z-score for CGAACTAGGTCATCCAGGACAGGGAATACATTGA .
# output 3.9

* * *

- System: PPARg:RXRa IVT, anti-PPARg (NR concentration 270 nM, RXRa partner concentration 90 nM)
- assay name: PBM binding z-score (relative to random genomic background probes); higher = stronger binding; sequences stand for … in GC…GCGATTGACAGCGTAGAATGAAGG
Readings of PBM binding z-score for the listed sequences
Lab note: record just the number, no unit beside it.

Here are 5 sequences together with their reported answers.
- biopolymer sequence: "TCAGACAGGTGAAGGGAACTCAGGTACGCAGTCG"
  PBM binding z-score: 0.387
- biopolymer sequence: "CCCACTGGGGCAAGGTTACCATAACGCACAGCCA"
  PBM binding z-score: 5.58
- biopolymer sequence: "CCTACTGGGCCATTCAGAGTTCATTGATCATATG"
  PBM binding z-score: 3.73
- biopolymer sequence: "GGATATAGGTAATACAAGGTGAAAGTCCGATTGT"
  PBM binding z-score: 5.34
- biopolymer sequence: "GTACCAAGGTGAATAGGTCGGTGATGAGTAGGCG"
  PBM binding z-score: 2.82

# input If you can, please state the reported PBM binding z-score value of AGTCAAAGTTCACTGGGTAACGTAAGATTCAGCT .
# output 4.82

* * *

Measured PBM binding z-score of individual entries
- System: RXRa DBDmut IVT, anti-RXR (DBD mutation: RXRa K156A/R161A, NR concentration 90 nM)
- assay name: PBM binding z-score (relative to random genomic background probes); higher = stronger binding; sequences stand for … in GC…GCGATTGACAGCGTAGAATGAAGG
Form field (numeric): enter value without unit.

Consider the following illustrative entries.
- biopolymer sequence: "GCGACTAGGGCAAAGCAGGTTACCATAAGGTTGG"
  attribute measured: "PBM binding z-score"
  numeric result: -0.427
- biopolymer sequence: "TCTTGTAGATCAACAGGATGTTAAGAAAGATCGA"
  attribute measured: "PBM binding z-score"
  numeric result: 0.72
- biopolymer sequence: "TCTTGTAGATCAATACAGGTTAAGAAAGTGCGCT"
  attribute measured: "PBM binding z-score"
  numeric result: 1.25

# input Any idea what PBM binding z-score came out for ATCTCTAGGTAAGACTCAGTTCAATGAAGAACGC on RXRa DBDmut IVT, anti-RXR (DBD mutation: RXRa K156A/R161A, NR concentration 90 nM)?
# output 0.822

# input Cool, now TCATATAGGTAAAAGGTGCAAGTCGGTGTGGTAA
# output 1.9

# input Next: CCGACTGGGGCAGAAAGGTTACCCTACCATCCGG
# output -0.847

# input Try this sequence too: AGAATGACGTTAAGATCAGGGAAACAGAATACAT
# output -0.43

# input Moving on to the next sequence: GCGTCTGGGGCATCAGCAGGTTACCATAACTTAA
# output 0.254

# input Next sequence: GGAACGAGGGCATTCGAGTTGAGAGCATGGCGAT
# output 2.99

# input And for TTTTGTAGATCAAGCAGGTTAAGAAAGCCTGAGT ?
# output -0.757

# input Likewise for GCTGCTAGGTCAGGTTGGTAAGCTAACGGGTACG ?
# output 0.418

# input Proceed to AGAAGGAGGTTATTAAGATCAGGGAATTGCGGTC
# output 0.39

# input Also need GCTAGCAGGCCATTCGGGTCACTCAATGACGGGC , thanks.
# output 0.641

# input And then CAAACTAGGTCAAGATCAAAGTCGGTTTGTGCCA , what is it?
# output 1.66

* * *

- Test system: RARa:RXR (NR concentration 270 nM, RXRa partner concentration 90 nM)
- assay name: PBM binding z-score (relative to random genomic background probes); higher = stronger binding; sequences stand for … in GC…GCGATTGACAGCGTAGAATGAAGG
Recorded PBM binding z-score determines the label; the label ranges are low-valued (below 1), mid-valued (1 to below 4), high-valued (4 or more)

Examples from the recorded data:
- biopolymer sequence: "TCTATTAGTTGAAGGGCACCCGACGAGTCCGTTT"
  qualitative label: "low-valued"
- biopolymer sequence: "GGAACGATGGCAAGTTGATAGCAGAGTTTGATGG"
  qualitative label: "low-valued"

# input For this sequence, which bin applies? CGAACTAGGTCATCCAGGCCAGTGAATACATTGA
# output mid-valued

# input Now the same for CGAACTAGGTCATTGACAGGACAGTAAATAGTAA
# output mid-valued

# input What do we get for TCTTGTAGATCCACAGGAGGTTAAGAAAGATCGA ?
# output mid-valued

# input Cool, now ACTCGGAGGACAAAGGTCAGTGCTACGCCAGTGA
# output high-valued

# input Also need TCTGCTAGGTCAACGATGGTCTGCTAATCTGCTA , thanks.
# output mid-valued

* * *

- System: PPARg DBDmut IVT, anti-PPARg (DBD mutation: PPARg1 K132A/R137A, NR concentration 270 nM)
- assay name: PBM binding z-score (relative to random genomic background probes); higher = stronger binding; sequences stand for … in GC…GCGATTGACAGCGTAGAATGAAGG
Returns the class for an entry based on its PBM binding z-score. Class ranges: class A (below -0.4), class B (-0.4 to below 0.9), class C (0.9 or more)

These solved cases illustrate the format of a correct answer.
- biopolymer sequence: "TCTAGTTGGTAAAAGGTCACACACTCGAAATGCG"
  qualitative label: "class C"
- biopolymer sequence: "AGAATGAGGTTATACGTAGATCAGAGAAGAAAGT"
  qualitative label: "class C"

Now consider the entry below.
# input Which bin, given its PBM binding z-score, does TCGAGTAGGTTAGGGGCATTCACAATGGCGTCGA occupy?
# output class A

* * *

- Test system: PPARg:RXRa 30nM:10nM, anti-RXR (NR concentration 30 nM, RXRa partner concentration 10 nM)
- assay name: PBM binding z-score (relative to random genomic background probes); higher = stronger binding; sequences stand for … in GC…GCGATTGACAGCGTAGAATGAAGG
// label = yes if PBM binding z-score is not less than 0.3, otherwise no

- biopolymer sequence: "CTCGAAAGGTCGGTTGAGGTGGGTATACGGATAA"
  qualitative label: "no"
- biopolymer sequence: "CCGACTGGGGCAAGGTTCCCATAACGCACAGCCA"
  qualitative label: "yes"
- biopolymer sequence: "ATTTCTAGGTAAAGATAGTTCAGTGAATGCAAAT"
  qualitative label: "yes"
- biopolymer sequence: "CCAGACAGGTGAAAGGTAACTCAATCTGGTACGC"
  qualitative label: "yes"

Now, please, on to the next sequence.
# input Reported PBM binding z-score reaches at least 0.3 for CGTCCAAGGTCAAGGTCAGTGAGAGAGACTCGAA ?
# output yes

* * *

- Test system: VDR:RXRa (NR concentration 270 nM, RXRa partner concentration 90 nM)
- assay name: PBM binding z-score (relative to random genomic background probes); higher = stronger binding; sequences stand for … in GC…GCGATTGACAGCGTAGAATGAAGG
attribute measured: PBM binding z-score
Lab note: jot down the number only; don't add units.

Recorded results for 5 sequences are shown here.
- biopolymer sequence: "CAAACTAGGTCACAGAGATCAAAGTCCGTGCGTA"
  PBM binding z-score: 4.39
- biopolymer sequence: "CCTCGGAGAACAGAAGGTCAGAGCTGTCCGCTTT"
  PBM binding z-score: 1.03
- biopolymer sequence: "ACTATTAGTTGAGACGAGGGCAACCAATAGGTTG"
  PBM binding z-score: 0.987
- biopolymer sequence: "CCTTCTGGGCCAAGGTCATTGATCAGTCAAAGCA"
  PBM binding z-score: 3.17
- biopolymer sequence: "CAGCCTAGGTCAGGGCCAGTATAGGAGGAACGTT"
  PBM binding z-score: 0.31

# input Reported PBM binding z-score for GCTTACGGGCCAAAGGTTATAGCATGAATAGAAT : what is it?
# output 0.816

# input Let us now turn to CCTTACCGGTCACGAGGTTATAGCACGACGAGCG
# output 2.17

# input Can you handle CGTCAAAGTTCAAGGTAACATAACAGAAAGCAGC next?
# output 3.63

# input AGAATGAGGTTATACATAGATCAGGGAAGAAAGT , same question.
# output 1.5

# input Now this one: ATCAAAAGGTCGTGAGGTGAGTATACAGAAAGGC
# output 3.92

# input Follow-up entry: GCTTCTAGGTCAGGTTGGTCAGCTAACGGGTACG
# output 0.953
